Test system: LOX IMVI
methodSummary: NCI tumour cell line growth inhibition, 48 h
Active and inactive are the calls of the source. Rule as the data show it: active = GI50 up to about 1.1 µM and inactive = higher. Where a SMILES comes first, the peptide text is derived from it. The star is where a group is joined. Boc = CC(C)(C)OC(=O)*
experimentalEndpoint: GI50

{"compound": "CCOC(=O)/C(=C\\c1ccccc1)C(=O)CCN1CCOCC1", "experimentalEndpoint": "GI50", "resultValue": "2.8 µM (inactive)"}
{"compound": "CN1C(=O)CCC1(O)C1C=CC=CC1 (centres undefined)", "experimentalEndpoint": "GI50", "resultValue": "> 100 µM (inactive)"}
{"compound": "COC(=O)C(Cc1c[nH]c2ccccc12)NC(=O)C(Cc1c[nH]c2ccccc12)NC(=O)C(Cc1c[nH]c2ccccc12)NC(=O)C(Cc1c[nH]c2ccccc12)NC(=O)C(Cc1c[nH]c2ccccc12)NC(=O)C(Cc1c[nH]c2ccccc12)NC(=O)C(Cc1c[nH]c2ccccc12)NC(=O)OC(C)(C)C (centres undefined) (Boc-WWWWWWW-OMe; configuration not given here)", "experimentalEndpoint": "GI50", "resultValue": "84.9 µM (inactive)"}
{"compound": "Cc1c2c(n3c(nc4ccccc43)c1C#N)N(c1ccc(F)cc1)CC2", "experimentalEndpoint": "GI50", "resultValue": "> 100 µM (inactive)"}
{"compound": "COc1cc2oc(-c3ccc(O)cc3O)c(CC=C(C)C)c(=O)c2c(O)c1/C=C/C(C)C [ARTOCARPIN]", "experimentalEndpoint": "GI50", "resultValue": "1.8 µM (inactive)"}
{"compound": "CCOP(=O)(OCC)/C(=C/n1c(=S)[nH]c2ccccc21)C(=O)OC", "experimentalEndpoint": "GI50", "resultValue": "> 100 µM (inactive)"}
{"compound": "O=C(/C(=C(/Br)I)c1ccccc1)c1ccccc1", "experimentalEndpoint": "GI50", "resultValue": "13.9 µM (inactive)"}
{"compound": "CCN(CC)Cc1ccccc1CC(=O)N1c2ccccc2C(=O)Nc2cccnc21", "experimentalEndpoint": "GI50", "resultValue": "> 100 µM (inactive)"}
{"compound": "O=C(O)CCCNc1ncc2c(n1)-c1ccccc1OC2", "experimentalEndpoint": "GI50", "resultValue": "> 100 µM (inactive)"}
{"compound": "O=C(CCN1CCN(c2cccc(Cl)c2)CC1)N1CCc2c([nH]c3ccccc23)C1c1cccnc1 (centres undefined)", "experimentalEndpoint": "GI50", "resultValue": "3.52 µM (inactive)"}
{"compound": "O=C(/C=N/O)Nc1ccc(Cl)c(I)c1", "experimentalEndpoint": "GI50", "resultValue": "11.1 µM (inactive)"}
{"compound": "NNc1cnn(-c2ccccc2)c(=O)c1Cl", "experimentalEndpoint": "GI50", "resultValue": "> 100 µM (inactive)"}
{"compound": "CCOC(=O)c1cccc(/N=N/c2ncc(/C=C/C(=O)OC)[nH]2)c1", "experimentalEndpoint": "GI50", "resultValue": "15.3 µM (inactive)"}
{"compound": "N=C(N)c1ccc(C(NC(=O)CNS(=O)(=O)c2ccc3ccccc3c2)P(=O)(Oc2ccccc2)Oc2ccccc2)cc1 (centres undefined)", "experimentalEndpoint": "GI50", "resultValue": "28.1 µM (inactive)"}
{"compound": "CCCCCCCCCc1c(Cl)nc(Cl)nc1Cl", "experimentalEndpoint": "GI50", "resultValue": "1.95 µM (inactive)"}
{"compound": "COC(=O)c1cc(S(=O)(=O)NC2=NNC(C)CN2)c(S)cc1Cl (centres undefined)", "experimentalEndpoint": "GI50", "resultValue": "37.5 µM (inactive)"}
{"compound": "CCCS(=O)(=O)/C(=C(\\c1ccc(Br)cc1)S(=O)(=O)CCC)c1ccc(Br)cc1", "experimentalEndpoint": "GI50", "resultValue": "> 10 µM (inactive)"}
{"compound": "O=C(Nc1nc2ncn(CC(COc3ccccc3)OC(=O)c3ccccc3)c2c(=O)[nH]1)c1ccccc1 (centres undefined)", "experimentalEndpoint": "GI50", "resultValue": "> 100 µM (inactive)"}
{"compound": "Fc1ccc(F)c(C2SCc3nc4ccccc4n32)c1 (centres undefined)", "experimentalEndpoint": "GI50", "resultValue": "65.6 µM (inactive)"}

Entry source: ChEMBL document CHEMBL1201862
